This section presents sequences with their documented furin cleavage Z-score values.
- System Tested: furin, P09958;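 note: purified furin at 1:10 enzyme:substrate in 50 mM HEPES pH 7.5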
- Sequence (P09958 whole entry): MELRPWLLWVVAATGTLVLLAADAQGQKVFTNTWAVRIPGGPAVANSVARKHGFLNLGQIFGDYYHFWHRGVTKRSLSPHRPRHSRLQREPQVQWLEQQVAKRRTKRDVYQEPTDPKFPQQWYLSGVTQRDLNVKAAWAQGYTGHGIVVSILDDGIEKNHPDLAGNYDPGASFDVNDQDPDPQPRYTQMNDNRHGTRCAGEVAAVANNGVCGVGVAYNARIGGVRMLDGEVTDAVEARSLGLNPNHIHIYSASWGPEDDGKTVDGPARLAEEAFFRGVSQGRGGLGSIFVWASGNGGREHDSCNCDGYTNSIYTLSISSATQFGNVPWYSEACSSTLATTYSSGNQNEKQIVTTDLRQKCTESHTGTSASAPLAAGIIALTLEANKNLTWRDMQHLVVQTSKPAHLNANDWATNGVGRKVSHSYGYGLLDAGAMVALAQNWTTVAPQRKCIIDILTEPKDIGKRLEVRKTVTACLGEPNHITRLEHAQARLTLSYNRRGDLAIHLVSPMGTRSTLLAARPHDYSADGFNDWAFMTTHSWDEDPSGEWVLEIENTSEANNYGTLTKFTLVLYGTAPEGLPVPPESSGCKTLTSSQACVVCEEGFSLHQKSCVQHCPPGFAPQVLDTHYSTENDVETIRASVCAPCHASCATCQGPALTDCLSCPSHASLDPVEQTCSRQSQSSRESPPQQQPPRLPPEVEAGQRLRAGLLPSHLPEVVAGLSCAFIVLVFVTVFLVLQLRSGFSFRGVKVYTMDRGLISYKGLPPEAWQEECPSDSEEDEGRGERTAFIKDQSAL
- Protocol Notes: furin cleavage Z-score vs untreated control; higher = more cleavage, active = 3.5 or more, inactive = 1 or less, 8 variable residues between constant flanks
- Conditions Used: 30 min
Some of the results follow. The hit rate among all sequences tested is not known here.
Write no unit; give the number alone.

Some solved cases for reference:
CARRFRSVPRAGNASASA [FS-2369] | 0.454
CAERPCHRPSAGNASASA [HC2333] | 1.34
CAKGYRGKRAAGNASASA [FS-448] | 8.26
CAQTRGLLGCAGNASASA [HC678] | -0.705
CAAKQRGKRAAGNASASA [FS-578] | 6.51
CAESTTPCSGAGNASASA [HC1977] | -0.368

For the next question, use this sequence.
**Query** Provide furin cleavage Z-score value for the following sequence: CAAGVGIYLLAGNASASA [HC1661]
**Result** 0.389
